# Test system: Hep G2
# testMethodNotes: Cytotoxicity assay (MTT), Hep G2 cell line
# Assay type: cell-based
# testConditions: 12.5 μM, 24 h
Criterion: Percentage of inhibition of cell growth meeting or surpassing 3%. Met: TRUE. Not met: FALSE.

>>> assignedclass("CC[C@H]1OC(=O)[C@H](C)[C@@H](O[C@H]2C[C@@](C)(OC)[C@@H](OC(=O)CCN3CCN(CCCN(CC)CC)CC3)[C@H](C)O2)[C@H](C)[C@@H](O[C@@H]2O[C@H](C)C[C@H](N(C)C)[C@H]2O)[C@](C)(OC)C[C@@H](C)C(=O)N[C@H](C)[C@@H](O)[C@]1(C)O [Example 31]")
"FALSE"
>>> assignedclass("CC[C@H]1OC(=O)[C@H](C)[C@@H](O[C@H]2C[C@@](C)(OC)[C@@H](OC(=O)CCN3CCCN(CCCN4CCCC4)CC3)[C@H](C)O2)[C@H](C)[C@@H](O[C@@H]2O[C@H](C)C[C@H](N(C)C)[C@H]2O)[C@](C)(OC)C[C@@H](C)C(=O)N[C@H](C)[C@@H](O)[C@]1(C)O [Example 34]")
"TRUE"
>>> assignedclass("CC[C@H]1OC(=O)[C@H](C)[C@@H](O[C@H]2C[C@@](C)(OC)[C@@H](OC(=O)CCN(C)C3CCCCC3)[C@H](C)O2)[C@H](C)[C@@H](O[C@@H]2O[C@H](C)C[C@H](N(C)C)[C@H]2O)[C@](C)(OC)C[C@@H](C)C(=O)N[C@H](C)[C@@H](O)[C@]1(C)O [Example 25]")
"TRUE"
>>> assignedclass("CC[C@H]1OC(=O)[C@H](C)[C@@H](O[C@H]2C[C@@](C)(OC)[C@@H](OC(=O)CCN(CC)CC)[C@H](C)O2)[C@H](C)[C@@H](O[C@@H]2O[C@H](C)C[C@H](NC)[C@H]2O)[C@](C)(OC)C[C@@H](C)C(=O)N[C@H](C)[C@@H](O)[C@]1(C)O [Example 54]")
"FALSE"
>>> assignedclass("CC[C@H]1OC(=O)[C@H](C)[C@@H](O[C@H]2C[C@@](C)(OC)[C@@H](OC(=O)CCN(C)C)[C@H](C)O2)[C@H](C)[C@@H](O[C@@H]2O[C@H](C)C[C@H](N(C)C)[C@H]2O)[C@](C)(OC)C[C@@H](C)C(=O)N[C@H](C)[C@@H](O)[C@]1(C)O [Example 12]")
"FALSE"

---

# Test system: IL-1α
# testMethodNotes: Inhibition of IL-1 production by stimulated human peripheral blood leukocytes in vitro
# Format: cell-based
# testConditions: Homo sapiens, Leukocyte, 10 μM; PMA-stimulated PBL; read-out: Percentage of inhibition of IL-1α production
resultType: inhibition at 10 µM (%)

>>> result("CC[C@H]1OC(=O)[C@H](C)[C@@H](O[C@H]2C[C@@](C)(OC)[C@@H](OC(=O)CCN3CCCN(CCCN4CCCC4)CC3)[C@H](C)O2)[C@H](C)[C@@H](O[C@@H]2O[C@H](C)C[C@H](N(C)C)[C@H]2O)[C@](C)(OC)C[C@@H](C)C(=O)N[C@H](C)[C@@H](O)[C@]1(C)O")
86
>>> result("CC[C@H]1OC(=O)[C@H](C)[C@@H](O[C@H]2C[C@@](C)(OC)[C@@H](OC(=O)CCN(C)C3CCCCC3)[C@H](C)O2)[C@H](C)[C@@H](O[C@@H]2O[C@H](C)C[C@H](N(C)C)[C@H]2O)[C@](C)(OC)C[C@@H](C)C(=O)N[C@H](C)[C@@H](O)[C@]1(C)O")
58
>>> result("CC[C@H]1OC(=O)[C@H](C)[C@@H](O[C@H]2C[C@@](C)(OC)[C@@H](OC(=O)CCNC3CC3)[C@H](C)O2)[C@H](C)[C@@H](O[C@@H]2O[C@H](C)C[C@H](N(C)C)[C@H]2O)[C@](C)(OC)C[C@@H](C)C(=O)N[C@H](C)[C@@H](O)[C@]1(C)O")
0
>>> result("CC[C@H]1OC(=O)[C@H](C)[C@@H](O[C@H]2C[C@@](C)(OC)[C@@H](OCCCN)[C@H](C)O2)[C@H](C)[C@@H](O[C@@H]2O[C@H](C)C[C@H](N(C)C)[C@H]2O)[C@](C)(O)C[C@@H](C)CN(C)[C@H](C)[C@H]2OC(=O)O[C@@]21C [Example 51C]")
0

---

# System: granulocytes
# Type: in vitro ADME
# testConditions: human, 180 min, 10 μM
resultType: Uptake (% azithromycin)

>>> result("CC[C@H]1OC(=O)[C@H](C)[C@@H](O[C@H]2C[C@@](C)(OC)[C@@H](OC(=O)CCN(CC)CC)[C@H](C)O2)[C@H](C)[C@@H](O[C@@H]2O[C@H](C)C[C@H](N(C)C)[C@H]2O)[C@](C)(OC)C[C@@H](C)C(=O)[C@H](C)[C@H]2NC(=O)O[C@@]21C")
412
>>> result("CC[C@H]1OC(=O)[C@H](C)[C@@H](O[C@H]2C[C@@](C)(OC)[C@@H](OC(=O)CCN(CC)CC)[C@H](C)O2)[C@H](C)[C@@H](O[C@@H]2O[C@H](C)C[C@H](N(C)C)[C@H]2O)[C@](C)(OC)C[C@@H](C)NC(=O)[C@H](C)[C@@H](O)[C@]1(C)O")
15
>>> result("CC[C@H]1OC(=O)[C@H](C)[C@@H](O[C@H]2C[C@@](C)(OC)[C@@H](O)[C@H](C)O2)[C@H](C)[C@@H](O[C@@H]2O[C@H](C)C[C@H](N(C)C)[C@H]2O)[C@](C)(O)C[C@@H](C)CN(C)[C@H](C)[C@@H](O)[C@]1(C)O [azithromycin, reference compound]")
100
>>> result("CC[C@H]1OC(=O)[C@H](C)[C@@H](O[C@H]2C[C@@](C)(OC)[C@@H](OC(=O)CCN(CC)CC)[C@H](C)O2)[C@H](C)[C@@H](O[C@@H]2O[C@H](C)C[C@H](N(C)C)[C@H]2O)[C@](C)(O)C[C@@H](C)CN(C)[C@H](C)[C@@H](O)[C@]1(C)O")
125
>>> result("CC[C@H]1OC(=O)[C@H](C)[C@@H](O[C@H]2C[C@@](C)(OC)[C@@H](OCCCN)[C@H](C)O2)[C@H](C)[C@@H](O[C@@H]2O[C@H](C)C[C@H](N(C)C)[C@H]2O)[C@](C)(O)C[C@@H](C)CN(C)[C@H](C)[C@H]2OC(=O)O[C@@]21C [Example 51C]")
122

---

# Test system: TNF-α
# testMethodNotes: Inhibition of TNF-α production by stimulated human peripheral blood leukocytes in vitro
# Type: cell-based
# testConditions: Homo sapiens, Leukocyte, 10 μM; LPS-stimulated PBL; read-out: Percentage of inhibition of TNF-α production
Criterion: inhibition at 10 µM meeting or surpassing 60%. Met: yes. Not met: no.

>>> assignedclass("CC[C@H]1OC(=O)[C@H](C)[C@@H](O[C@H]2C[C@@](C)(OC)[C@@H](OC(=O)CCN(CC)CC)[C@H](C)O2)[C@H](C)[C@@H](O[C@@H]2O[C@H](C)C[C@H](NC)[C@H]2O)[C@](C)(OC)C[C@@H](C)C(=O)N[C@H](C)[C@@H](O)[C@]1(C)O [Example 54]")
"no"
>>> assignedclass("CC[C@H]1OC(=O)[C@H](C)[C@@H](O[C@H]2C[C@@](C)(OC)[C@@H](OC(=O)CCN(C)C)[C@H](C)O2)[C@H](C)[C@@H](O[C@@H]2O[C@H](C)C[C@H](N(C)C)[C@H]2O)[C@](C)(OC)C[C@@H](C)C(=O)N[C@H](C)[C@@H](O)[C@]1(C)O [Example 12]")
"no"
>>> assignedclass("CC[C@H]1OC(=O)[C@H](C)[C@@H](O[C@H]2C[C@@](C)(OC)[C@@H](OC(=O)CCN(CC)CC)[C@H](C)O2)[C@H](C)[C@@H](O[C@@H]2O[C@H](C)C[C@H](N(C)C)[C@H]2O)[C@](C)(OC)C[C@@H](C)NC(=O)[C@H](C)[C@@H](O)[C@]1(C)O [Example 3]")
"yes"
>>> assignedclass("CC[C@H]1OC(=O)[C@H](C)[C@@H](O[C@H]2C[C@@](C)(OC)[C@@H](O)[C@H](C)O2)[C@H](C)[C@@H](O[C@@H]2O[C@H](C)C[C@H](N(C)C)[C@H]2O)[C@](C)(O)C[C@@H](C)CN(C)[C@H](C)[C@@H](O)[C@]1(C)O [azithromycin, reference compound]")
"no"
>>> assignedclass("CC[C@H]1OC(=O)[C@H](C)[C@@H](O[C@H]2C[C@@](C)(OC)[C@@H](OC(=O)CCN3CCN(CCCN4CCCCC4)CC3)[C@H](C)O2)[C@H](C)[C@@H](O[C@@H]2O[C@H](C)C[C@H](N(C)C)[C@H]2O)[C@](C)(OC)C[C@@H](C)C(=O)N[C@H](C)[C@@H](O)[C@]1(C)O [Example 22]")
"no"
>>> assignedclass("CC[C@H]1OC(=O)[C@H](C)[C@@H](O[C@H]2C[C@@](C)(OC)[C@@H](OC(=O)CCNC3CC3)[C@H](C)O2)[C@H](C)[C@@H](O[C@@H]2O[C@H](C)C[C@H](N(C)C)[C@H]2O)[C@](C)(OC)C[C@@H](C)C(=O)N[C@H](C)[C@@H](O)[C@]1(C)O [Example 40]")
"yes"
>>> assignedclass("CC[C@H]1OC(=O)[C@H](C)[C@@H](O[C@H]2C[C@@](C)(OC)[C@@H](OC(=O)CCN3CCCN(CCCN4CCCC4)CC3)[C@H](C)O2)[C@H](C)[C@@H](O[C@@H]2O[C@H](C)C[C@H](N(C)C)[C@H]2O)[C@](C)(OC)C[C@@H](C)C(=O)N[C@H](C)[C@@H](O)[C@]1(C)O [Example 34]")
"no"
>>> assignedclass("CC[C@H]1OC(=O)[C@H](C)[C@@H](O[C@H]2C[C@@](C)(OC)[C@@H](OC(=O)CCN(CC)CC)[C@H](C)O2)[C@H](C)[C@@H](O[C@@H]2O[C@H](C)C[C@H](N(C)C)[C@H]2O)[C@](C)(OC)C[C@@H](C)C(=O)[C@H](C)[C@H]2NC(=O)O[C@@]21C [Example 9]")
"yes"
>>> assignedclass("CC[C@H]1OC(=O)[C@H](C)[C@@H](O[C@H]2C[C@@](C)(OC)[C@@H](OC(=O)CCN3CCCCCC3)[C@H](C)O2)[C@H](C)[C@@H](O[C@@H]2O[C@H](C)C[C@H](N(C)C)[C@H]2O)[C@](C)(OC)C[C@@H](C)C(=O)N[C@H](C)[C@@H](O)[C@]1(C)O [Example 41]")
"no"
>>> assignedclass("C=CC(=O)OC1[C@H](C)O[C@@H](O[C@H]2[C@H](C)[C@@H](O[C@@H]3O[C@H](C)C[C@H](NC)[C@H]3O)[C@](C)(OC)C[C@@H](C)C(=O)N[C@H](C)[C@@H](O)[C@](C)(O)[C@@H](CC)OC(=O)[C@@H]2C)C[C@@]1(C)OC (stereo partly drawn) [Example 53]")
"no"
>>> assignedclass("CC[C@H]1OC(=O)[C@H](C)[C@@H](O[C@H]2C[C@@](C)(OC)[C@@H](OCCCN(CC)CC)[C@H](C)O2)[C@H](C)[C@@H](O[C@@H]2O[C@H](C)C[C@H](N(C)C)[C@H]2O)[C@](C)(O)C[C@@H](C)CN(C)[C@H](C)[C@@H](O)[C@]1(C)O [Example 96]")
"no"
>>> assignedclass("CC[C@H]1OC(=O)[C@H](C)[C@@H](OC2C[C@@](C)(OC)[C@@H](OC(=O)CCN3CCNCC3)[C@H](C)O2)[C@H](C)[C@@H](OC2O[C@H](C)C[C@H](N(C)C)[C@H]2O)[C@](C)(OC)C[C@@H](C)C(=O)[C@H](C)[C@@H](O)[C@]1(C)O (stereo partly drawn) [Example 50]")
"no"
>>> assignedclass("CC[C@H]1OC(=O)[C@H](C)[C@@H](O[C@H]2C[C@@](C)(OC)[C@@H](OC(=O)CCN(C)C3CCCCC3)[C@H](C)O2)[C@H](C)[C@@H](O[C@@H]2O[C@H](C)C[C@H](N(C)C)[C@H]2O)[C@](C)(OC)C[C@@H](C)C(=O)N[C@H](C)[C@@H](O)[C@]1(C)O [Example 25]")
"no"
>>> assignedclass("CC[C@H]1OC(=O)[C@H](C)[C@@H](O[C@H]2C[C@@](C)(OC)[C@@H](OC(=O)CCN(CC)CC)[C@H](C)O2)[C@H](C)[C@@H](O[C@@H]2O[C@H](C)C[C@H](N(C)C)[C@H]2O)[C@](C)(O)C[C@@H](C)CN(C)[C@H](C)[C@H]2OC(=O)O[C@@]21C [Example 1]")
"no"

meta.source: patent US8080529B2
